assay_details: Liver Microsome Stability Assay (rat)
condition_parameters: rat liver microsomes, with NADPH, 1.0 uM compound
If the reported Liver Microsome Stability (Multiple Species): Rat - % Remaining after 30 min w/NADPH equals or exceeds 20%, assign 1. If not, assign 0.

>  <compound>
CC(=O)N1CCC(Oc2ccc(N3CCC[C@@H]3c3csc(NC(=O)c4cccn4Cc4ccnc(F)c4)n3)cn2)CC1

>  <category>
0

$$$$
>  <compound>
CC(=O)N1CCC(Oc2ccc(N3CCC[C@@H]3c3csc(NC(=O)c4cccn4Cc4ccnc(F)c4)n3)nc2)CC1

>  <category>
0

$$$$
>  <compound>
O=C(Nc1nc(CC2CCCCO2)cs1)c1cccn1Cc1ccncc1 (stereo not drawn)

>  <category>
0

$$$$
>  <compound>
CC1CCc2c(/C=C/c3csc(NC(=O)c4cccn4Cc4ccnc(F)c4)n3)ncn2C1 (stereo not drawn)

>  <category>
0

$$$$
>  <compound>
NC(=O)CCCCn1cccc1C(=O)Nc1nc([C@H]2CCCN2c2ccccc2)cs1

>  <category>
1

$$$$
>  <compound>
O=C(Nc1nc([C@H]2CCCN2c2ccc(OC3CN(C(=O)CO)C3)cc2)cs1)c1cccn1Cc1ccnc(F)c1

>  <category>
1

$$$$
>  <compound>
COC(=O)Nc1ccc(N2CCC[C@@H]2c2csc(NC(=O)c3cccn3Cc3ccnc(F)c3)n2)cc1

>  <category>
1

$$$$
>  <compound>
CC(=O)N1CCC(Oc2cc(F)c(N3CCC[C@@H]3c3csc(NC(=O)c4cccn4Cc4ccnc(F)c4)n3)c(F)c2)CC1

>  <category>
0

$$$$
>  <compound>
O=C(Nc1nc(/C=C/c2coc(C3CCCCC3)n2)cs1)c1cccn1Cc1ccncc1

>  <category>
0

$$$$
>  <compound>
Cc1cccc(/C=C/c2csc(NC(=O)c3cccn3Cc3ccnc(F)c3)n2)n1

>  <category>
0

$$$$
>  <compound>
COC(=O)Nc1ccc(N2CCC[C@@H]2c2csc(NC(=O)c3cc(C)cn3Cc3ccnc(F)c3)n2)nc1

>  <category>
0

$$$$
>  <compound>
Cc1c(/C=C/c2csc(NC(=O)c3cccn3Cc3ccnc(F)c3)n2)ncn1C(C)CO (stereo not drawn)

>  <category>
0

$$$$
>  <compound>
N#CCn1cnc(/C=C/c2csc(NC(=O)c3cccn3Cc3ccnc(F)c3)n2)c1

>  <category>
1

$$$$
>  <compound>
O=C(Nc1nc([C@H]2CCCN2c2ccccc2)cs1)c1cccn1Cc1cnn[nH]1

>  <category>
0

$$$$
>  <compound>
Cc1cccc2nc(/C=C/c3csc(NC(=O)c4cccn4Cc4ccncc4)n3)cn12

>  <category>
0

$$$$
>  <compound>
O=C(O)c1ccc(N2CCC[C@@H]2c2csc(NC(=O)c3cccn3Cc3ccncc3)n2)cc1

>  <category>
0

$$$$
>  <compound>
CC(=O)N1CC=C(Oc2ccc(N3CCC[C@@H]3c3csc(NC(=O)c4cccn4Cc4ccnc(F)c4)n3)cc2)CC1

>  <category>
0

$$$$
>  <compound>
O=C(Nc1nc([C@H]2CCCN2c2ccc(OCCO)cc2)cs1)c1cccn1Cc1ccnc(F)c1

>  <category>
0

$$$$
>  <compound>
CC(=O)N1CCC(Nc2ccc(N3CCC[C@@H]3c3csc(NC(=O)c4cccn4Cc4ccnc(F)c4)n3)cc2)CC1

>  <category>
0

$$$$
>  <compound>
CCOC(=O)C(C)n1cnc(/C=C/c2csc(NC(=O)c3cccn3Cc3ccnc(F)c3)n2)c1C (stereo not drawn)

>  <category>
0

$$$$
>  <compound>
CN(C)C(=O)N1CC(Oc2ccc(N3CCC[C@@H]3c3csc(NC(=O)c4cccn4Cc4ccnc(F)c4)n3)cc2)C1

>  <category>
1

$$$$
>  <compound>
O=C(Nc1nc([C@@H]2CCN(c3ccccn3)C2)cs1)c1cccn1Cc1ccncc1

>  <category>
0

$$$$
>  <compound>
CS(=O)(=O)N1CC(Oc2ccc(N3CCC[C@@H]3c3csc(NC(=O)c4cccn4Cc4ccnc(F)c4)n3)cc2)C1

>  <category>
1

$$$$
>  <compound>
Cc1cccc2nc(/C=C/c3csc(NC(=O)c4cccn4Cc4ccnc(F)c4)n3)cn12

>  <category>
0

$$$$
>  <compound>
N#CCC1(Cn2cccc2C(=O)Nc2nc([C@H]3CCCN3c3ccccc3)cs2)CCC1

>  <category>
0

$$$$
>  <compound>
O=C(Nc1nc(/C=C/c2cccc(=O)[nH]2)cs1)c1cccn1Cc1ccnc(F)c1

>  <category>
0

$$$$
>  <compound>
O=C(Nc1nc([C@H]2CCCN2c2ccccc2)cs1)c1cccn1CCCc1cccnc1

>  <category>
0

$$$$
>  <compound>
CCc1ccc(N2CCC[C@@H]2c2csc(NC(=O)c3cccn3Cc3ccncc3)n2)cn1

>  <category>
0

$$$$
>  <compound>
COc1ccc(O[C@@H]2CCC[C@H](c3csc(NC(=O)c4cccn4Cc4ccncc4)n3)C2)nc1

>  <category>
0

$$$$
